Reference for the values: patent CN113912709A

target: T1, SARS-CoV-2 RBD protein L452R mutant (SARS-CoV-2, UniProt P0DTC2 319-541); assay: SPR, Biacore 8K, RBD on CM5 chip, IgG injected, 1:1 model
T1 construct: domain: RBD
property_name: pKd
Bear in mind: pKd is minus log10 of a mol/L concentration; give just that figure.

Dear colleague, I am looking for the recorded pKd of the following binder: VacW-209 (antibody, V domains shown) VH: QVQLVESGGGVVQPGRSLRLSCAASGFTFSSIAMHWVRQAPGKGLEWVAVMSFDGSIKYYGDSVKGRFTISRDNSKSTLYLQMNSLRAEDTAVYYCARGVQGYYDRSGYYNLDYNYGMDVWGQGTTVTVSS VL: QSVLTQPPSVSGAPGQRVTISCTGSSSNIGAGYDVHWYQQLPGTAPKLLIYGNSNRPSGVPDRFSGSKSGTSASLAITGLQAEDEADYYCQSYDSSLSGWVFGGGTKLTVL 10.63
